B1: library; a variant is named by its letters at N, in order (parent)
chain: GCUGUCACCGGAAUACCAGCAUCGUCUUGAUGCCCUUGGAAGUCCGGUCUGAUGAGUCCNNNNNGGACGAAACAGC

Variants of: B1
Test: FACS-Seq fitted mean relative fluorescence mCherry/BFP with ligand (log10 relative fluorescence); ligand concentration (+) FACS-Seq: 1 mM; higher = higher reporter protein expression
Settings: HEK293T, ligand present: yes
Threshold rule: FACS-Seq fitted mean (log10) greater than or equal to 0.7 is criterion met; below that, criterion not met.

variant-descriptor: ACCUA
assigned-class: criterion met

variant-descriptor: UAGAG
assigned-class: criterion met

variant-descriptor: CGUUU
assigned-class: criterion met

variant-descriptor: AUAAC
assigned-class: criterion met

variant-descriptor: CUGCC
assigned-class: criterion met

variant-descriptor: UAGUC
assigned-class: criterion not met

variant-descriptor: ACUGU
assigned-class: criterion not met

variant-descriptor: CGCCU
assigned-class: criterion not met

variant-descriptor: UGAAU
assigned-class: criterion met

variant-descriptor: CUCCA
assigned-class: criterion met

variant-descriptor: GAUCU
assigned-class: criterion met

variant-descriptor: AUAUA
assigned-class: criterion not met

variant-descriptor: CAUGA
assigned-class: criterion not met

variant-descriptor: GUCUG
assigned-class: criterion met

variant-descriptor: CGUAC
assigned-class: criterion met

variant-descriptor: AUUAC
assigned-class: criterion met

variant-descriptor: UCCCG
assigned-class: criterion met

variant-descriptor: UGCCG
assigned-class: criterion met

variant-descriptor: UCUGA
assigned-class: criterion met

variant-descriptor: AGGAA
assigned-class: criterion not met

variant-descriptor: CGCUU
assigned-class: criterion met

variant-descriptor: AAACC
assigned-class: criterion not met
